Here, each record is paired with measured pKd data.
Tested on: Fab clone 2 (synthetic), PDB:6B14_1+PDB:6B3K_2
Assay comment: filter binding
pKd: −log10 of the molar value.

{"columns": ["Sequence record", "pKd"],
 "data": [
  ["GUCCAGUAGGAACACUAUACUACUGGAUAAUCAAAGACAAAUCUGCCCGAAGGGCUUGAGAACAUCGAAACACGAUGCAGAGGUGGCAGCCUCCGGUGGGUUAAAACCCAACGUUCUCAACAAUAGUGA [WT-BLP]", 7.30],
  ["UGCGACCAUGGUGAGACCCGCCAUGGUCGC [N9RNA1 HP (AM HP)]", 8.00]
]}
